Sourced from ChEMBL document CHEMBL1909495

Subject of test: Beta-lactamase (Pseudomonas aeruginosa) (UniProt Q79MP6)
Sequence (Q79MP6 19-246 limits assumed): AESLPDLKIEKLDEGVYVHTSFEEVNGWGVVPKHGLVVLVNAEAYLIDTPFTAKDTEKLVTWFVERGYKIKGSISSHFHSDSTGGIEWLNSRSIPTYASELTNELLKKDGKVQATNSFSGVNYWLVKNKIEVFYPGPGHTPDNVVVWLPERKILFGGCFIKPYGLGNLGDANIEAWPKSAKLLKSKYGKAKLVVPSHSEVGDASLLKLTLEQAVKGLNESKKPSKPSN
Test summary: Inhibition of Pseudomonas aeruginosa metallo-beta-lactamase IMP-1 expressed in Escherichia coli BL21(DE3) using CENTA as substrate at 10 uM by spectrophotometric analysis
Parameter: inhibition (%)

Cc1ccc(-n2c(-c3ccccc3)c(-c3ccccc3)c3c2ncn2cnnc32)cc1	4
COc1ccc(-n2cc(-c3ccccc3)c(C#N)c2N)cc1	0
Cc1ccc(-n2c(-c3ccccc3)c(-c3ccccc3)c3c(Cl)ncnc32)cc1	10

(A) Cc1ccc(-n2c(-c3ccccc3)c(-c3ccccc3)c3c2ncn2c(C)nnc32)cc1
(B) Cc1ccc(-n2cc(-c3ccccc3)c3c(O)ncnc32)cc1
Of A and B , which carries the smaller reported inhibition figure? Please reply using the label of the selected record. B
